Origin of the recorded values: ChEMBL document CHEMBL1671786

# Ke values compiled below
# systemName: Mu-type opioid receptor (Homo sapiens)

compound: Oc1cccc(C23CCCC(C2)N(C/C=C/c2ccccc2)CC3)c1 (single isomer, unassigned; (-))
Ke / nM: 6.6

compound: Oc1cccc([C@]23CCC[C@H](C2)N(C[C@H]2C[C@H]2c2ccccc2)CC3)c1
Ke / nM: 18

compound: Oc1cccc([C@@]23CCC[C@@H](C2)N(C[C@H]2C[C@H]2c2ccccc2)CC3)c1
Ke / nM: 33

compound: Oc1cccc([C@]23CCC[C@H](C2)N(C[C@@H]2C[C@@H]2c2ccccc2)CC3)c1
Ke / nM: 8.6

* * *

Record type: Ke measurement. Applies to: Mu-type opioid receptor (Homo sapiens)

compound: Oc1cccc([C@@]23CCC[C@@H](C2)N(C[C@H]2C[C@@H]2c2ccccc2)CC3)c1
systemName: Mu-type opioid receptor (Homo sapiens)
Ke: 0.17 nM
--
compound: Oc1cccc([C@@]23CCC[C@@H](C2)N(C[C@@H]2C[C@H]2c2ccccc2)CC3)c1
systemName: Mu-type opioid receptor (Homo sapiens)
Ke: 0.31 nM
--
compound: Oc1cccc([C@]23CCC[C@H](C2)N(C[C@@H]2C[C@H]2c2ccccc2)CC3)c1
systemName: Mu-type opioid receptor (Homo sapiens)
Ke: 9.4 nM
--
compound: Oc1cccc([C@]23CCC[C@H](C2)N(C/C=C\c2ccccc2)CC3)c1 (single isomer, unassigned)
systemName: Mu-type opioid receptor (Homo sapiens)
Ke: 3.1 nM

* * *

# systemName: Delta-type opioid receptor (Homo sapiens, UniProt P41143)
# Sequence (P41143 whole entry): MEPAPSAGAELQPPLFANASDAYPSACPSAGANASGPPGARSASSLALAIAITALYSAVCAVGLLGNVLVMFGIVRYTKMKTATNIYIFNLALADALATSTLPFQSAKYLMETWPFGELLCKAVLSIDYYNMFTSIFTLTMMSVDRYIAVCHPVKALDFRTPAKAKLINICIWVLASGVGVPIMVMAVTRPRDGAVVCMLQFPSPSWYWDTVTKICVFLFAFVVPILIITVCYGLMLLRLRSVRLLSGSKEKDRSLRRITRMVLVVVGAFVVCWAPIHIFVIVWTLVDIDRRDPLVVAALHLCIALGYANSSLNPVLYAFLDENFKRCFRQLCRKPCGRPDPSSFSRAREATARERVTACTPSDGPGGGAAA
# measurementDescription: Displacement of [125I]IOXY from human recombinant delta opioid receptor expressed in CHO cells
pKi: −log10 of the molar value.
Catalogue of pKi values

molecule: Oc1cccc([C@@]23CCC[C@@H](C2)N(C/C=C\c2ccccc2)CC3)c1 (single isomer, unassigned)
systemName: Delta-type opioid receptor (Homo sapiens, UniProt P41143)
pKi: 6.44
//
molecule: Oc1cccc([C@@]23CCC[C@@H](C2)N(C[C@H]2C[C@H]2c2ccccc2)CC3)c1
systemName: Delta-type opioid receptor (Homo sapiens, UniProt P41143)
pKi: 5.70
//
molecule: Oc1cccc([C@]23CCC[C@H](C2)N(C[C@@H]2C[C@@H]2c2ccccc2)CC3)c1
systemName: Delta-type opioid receptor (Homo sapiens, UniProt P41143)
pKi: 6.21
//
molecule: Oc1cccc([C@@]23CCC[C@@H](C2)N(C[C@@H]2C[C@@H]2c2ccccc2)CC3)c1
systemName: Delta-type opioid receptor (Homo sapiens, UniProt P41143)
pKi: 6.71
//
molecule: Oc1cccc([C@@]23CCC[C@@H](C2)N(C[C@H]2C[C@@H]2c2ccccc2)CC3)c1
systemName: Delta-type opioid receptor (Homo sapiens, UniProt P41143)
pKi: 6.78
//
molecule: Oc1cccc([C@@]23CCC[C@@H](C2)N(C[C@@H]2C[C@H]2c2ccccc2)CC3)c1
systemName: Delta-type opioid receptor (Homo sapiens, UniProt P41143)
pKi: 6.70
//
molecule: Oc1cccc([C@]23CCC[C@H](C2)N(C[C@H]2C[C@H]2c2ccccc2)CC3)c1
systemName: Delta-type opioid receptor (Homo sapiens, UniProt P41143)
pKi: 6.26
//
molecule: Oc1cccc([C@]23CCC[C@H](C2)N(C/C=C\c2ccccc2)CC3)c1 (single isomer, unassigned)
systemName: Delta-type opioid receptor (Homo sapiens, UniProt P41143)
pKi: 6.34
//
molecule: Oc1cccc([C@]23CCC[C@H](C2)N(C[C@@H]2C[C@H]2c2ccccc2)CC3)c1
systemName: Delta-type opioid receptor (Homo sapiens, UniProt P41143)
pKi: 6.10
//
molecule: Oc1cccc(C23CCCC(C2)N(C/C=C/c2ccccc2)CC3)c1 (single isomer, unassigned; (-))
systemName: Delta-type opioid receptor (Homo sapiens, UniProt P41143)
pKi: 6.82
//
molecule: Oc1cccc(C23CCCC(C2)N(C/C=C/c2ccccc2)CC3)c1 (single isomer, unassigned; (+))
systemName: Delta-type opioid receptor (Homo sapiens, UniProt P41143)
pKi: 6.86
//
molecule: Oc1cccc([C@]23CCC[C@H](C2)N(C[C@H]2C[C@@H]2c2ccccc2)CC3)c1
systemName: Delta-type opioid receptor (Homo sapiens, UniProt P41143)
pKi: 6.74

* * *

# systemName: UniProt P35372
# measurementDescription: Binding affinity to mu opioid receptor
pKi: −log10 of the molar value.

compound: C[C@H]1CN(CC2CC2c2ccccc2)CC[C@@]1(C)c1cccc(O)c1 (stereo partly specified)
pKi: 8.76

* * *

For reference, Ke measured on Mu-type opioid receptor (Homo sapiens, UniProt P35372):

compound: Oc1cccc([C@@]23CCC[C@@H](C2)N(C[C@@H]2C[C@@H]2c2ccccc2)CC3)c1
unitText: nM
Ke: 8.2
//
compound: Oc1cccc([C@]23CCC[C@H](C2)N(C[C@H]2C[C@@H]2c2ccccc2)CC3)c1
unitText: nM
Ke: 2.2
//
compound: Oc1cccc(C23CCCC(C2)N(C/C=C/c2ccccc2)CC3)c1 (single isomer, unassigned; (+))
unitText: nM
Ke: 0.58
//
compound: Oc1cccc([C@@]23CCC[C@@H](C2)N(C/C=C\c2ccccc2)CC3)c1 (single isomer, unassigned)
unitText: nM
Ke: 7.7

* * *

# systemName: Kappa-type opioid receptor (Homo sapiens, UniProt P41145)
# Sequence (P41145 whole entry): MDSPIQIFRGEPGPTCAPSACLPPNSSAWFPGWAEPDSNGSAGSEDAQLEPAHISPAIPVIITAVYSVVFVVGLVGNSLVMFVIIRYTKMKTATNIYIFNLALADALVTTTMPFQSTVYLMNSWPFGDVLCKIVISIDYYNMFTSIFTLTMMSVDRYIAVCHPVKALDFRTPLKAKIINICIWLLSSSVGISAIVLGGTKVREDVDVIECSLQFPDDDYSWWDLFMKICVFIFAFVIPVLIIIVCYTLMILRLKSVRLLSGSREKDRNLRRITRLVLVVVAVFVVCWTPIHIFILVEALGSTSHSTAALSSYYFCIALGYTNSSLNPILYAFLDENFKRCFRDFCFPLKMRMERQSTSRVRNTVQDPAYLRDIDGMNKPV
# measurementDescription: Displacement of [125I]IOXY from human recombinant kappa opioid receptor expressed in CHO cells
testReadout: Ki (nM)

compound: Oc1cccc([C@@]23CCC[C@@H](C2)N(C[C@H]2C[C@@H]2c2ccccc2)CC3)c1
resultValue: 72

compound: Oc1cccc([C@@]23CCC[C@@H](C2)N(C[C@@H]2C[C@@H]2c2ccccc2)CC3)c1
resultValue: 322

compound: Oc1cccc([C@]23CCC[C@H](C2)N(C[C@@H]2C[C@H]2c2ccccc2)CC3)c1
resultValue: 390

compound: Oc1cccc([C@]23CCC[C@H](C2)N(C[C@H]2C[C@@H]2c2ccccc2)CC3)c1
resultValue: 323

compound: Oc1cccc([C@]23CCC[C@H](C2)N(C/C=C\c2ccccc2)CC3)c1 (single isomer, unassigned)
resultValue: 123

compound: Oc1cccc([C@@]23CCC[C@@H](C2)N(C/C=C\c2ccccc2)CC3)c1 (single isomer, unassigned)
resultValue: 367

compound: Oc1cccc([C@]23CCC[C@H](C2)N(C[C@@H]2C[C@@H]2c2ccccc2)CC3)c1
resultValue: 153

compound: Oc1cccc([C@@]23CCC[C@@H](C2)N(C[C@@H]2C[C@H]2c2ccccc2)CC3)c1
resultValue: 210

compound: Oc1cccc(C23CCCC(C2)N(C/C=C/c2ccccc2)CC3)c1 (single isomer, unassigned; (-))
resultValue: 225

compound: Oc1cccc([C@]23CCC[C@H](C2)N(C[C@H]2C[C@H]2c2ccccc2)CC3)c1
resultValue: 174

compound: Oc1cccc([C@@]23CCC[C@@H](C2)N(C[C@H]2C[C@H]2c2ccccc2)CC3)c1
resultValue: 475

compound: Oc1cccc(C23CCCC(C2)N(C/C=C/c2ccccc2)CC3)c1 (single isomer, unassigned; (+))
resultValue: 125

* * *

# systemName: Mu-type opioid receptor (Homo sapiens, UniProt P35372)
# Sequence (P35372 whole entry): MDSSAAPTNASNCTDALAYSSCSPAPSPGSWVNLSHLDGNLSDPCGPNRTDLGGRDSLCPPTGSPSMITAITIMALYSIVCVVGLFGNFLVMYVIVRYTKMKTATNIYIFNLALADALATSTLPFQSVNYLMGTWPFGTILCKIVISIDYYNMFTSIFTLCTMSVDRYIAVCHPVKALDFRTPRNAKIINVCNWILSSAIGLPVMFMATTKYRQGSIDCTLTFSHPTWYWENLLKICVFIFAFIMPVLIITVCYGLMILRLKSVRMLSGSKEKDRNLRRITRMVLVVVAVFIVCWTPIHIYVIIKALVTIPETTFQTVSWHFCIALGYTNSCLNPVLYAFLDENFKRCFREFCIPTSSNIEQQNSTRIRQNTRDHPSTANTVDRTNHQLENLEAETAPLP
# measurementDescription: Displacement of [125I]IOXY from human recombinant mu opioid receptor expressed in CHO cells
# Assay type: cell-based
testReadout: log10 of Ki (log10 of the value in nM)

compound: Oc1cccc([C@]23CCC[C@H](C2)N(C[C@@H]2C[C@@H]2c2ccccc2)CC3)c1
log10 of Ki: 2.42
--
compound: Oc1cccc([C@]23CCC[C@H](C2)N(C[C@H]2C[C@H]2c2ccccc2)CC3)c1
log10 of Ki: 1.88
--
compound: Oc1cccc([C@@]23CCC[C@@H](C2)N(C[C@@H]2C[C@@H]2c2ccccc2)CC3)c1
log10 of Ki: 1.04
--
compound: Oc1cccc([C@@]23CCC[C@@H](C2)N(C[C@H]2C[C@@H]2c2ccccc2)CC3)c1
log10 of Ki: 0.48
--
compound: Oc1cccc([C@]23CCC[C@H](C2)N(C/C=C\c2ccccc2)CC3)c1 (single isomer, unassigned)
log10 of Ki: 1.41
--
compound: Oc1cccc(C23CCCC(C2)N(C/C=C/c2ccccc2)CC3)c1 (single isomer, unassigned; (+))
log10 of Ki: 0.30
--
compound: Oc1cccc([C@@]23CCC[C@@H](C2)N(C/C=C\c2ccccc2)CC3)c1 (single isomer, unassigned)
log10 of Ki: 1.15
